From: patent US20220274947A1

Property: mortality at 4 mg/m2; scope: individual molecules
Test system: Musca domestica strain WHO—N
Test: Musca domestica test (MUSCDO surface treatment & contact assay)
Format: in vivo
Details: surface concentration 4 mg/m^2, glazed tile, exposure 30 minutes, 24 hours after contact, read-out: efficacy (mortality)
Description: Musca domestica Test (MUSCDO Surface Treatment & Contact Assay) Solvent: Aceton+2000 ppm rapeseed oil methyl ester (RME) In order to produce a sufficient, active ingredient containing solution it is necessary to solve the test compound in the solvent-mix (acetone at 2 mg/ml/RME 2000 ppm). […] Mortality in percent (%) is determined 24 hours after contact of the insects to the treated surface. […]

>  <Smiles input>
Cc1nc([C@H](C)NC(=O)c2cc(C(F)(F)F)cc(C(F)(F)F)c2)n(-c2ccc(C(=O)N(C)C3CC3)cn2)n1

>  <mortality at 4 mg/m2>
80 to 100%

$$$$
>  <Smiles input>
C[C@H](NC(=O)c1cc(Cl)cc(C#N)c1)c1ncnn1-c1ccc(C#N)cn1

>  <mortality at 4 mg/m2>
80 to 100%

$$$$
>  <Smiles input>
C[C@H](NC(=O)c1cc(Cl)nc(C(F)(F)F)c1)c1ncnn1-c1ccc(C#N)cn1

>  <mortality at 4 mg/m2>
80 to 100%

$$$$
>  <Smiles input>
Cc1nc([C@H](C)NC(=O)c2cc(Cl)cc(C(F)F)c2)n(-c2ccc(C#N)cn2)n1

>  <mortality at 4 mg/m2>
80 to 100%

$$$$
>  <Smiles input>
Cc1nc([C@H](C)NC(=O)c2cc(Cl)cc(C(F)(F)F)c2)n(-c2cc(C#N)ccn2)n1

>  <mortality at 4 mg/m2>
80 to 100%

$$$$
>  <Smiles input>
Cc1nc([C@H](C)NC(=O)c2cc(C(F)(F)F)cc(C(F)(F)F)c2)n(-c2ccc(C(=O)N(C)CC#N)cn2)n1

>  <mortality at 4 mg/m2>
80 to 100%

$$$$
>  <Smiles input>
C[C@H](NC(=O)c1cc(Cl)cc(OC(F)(F)F)c1)c1nc(C2CC2)nn1-c1ccc(C#N)cn1

>  <mortality at 4 mg/m2>
80 to 100%

$$$$
>  <Smiles input>
C[C@H](NC(=O)c1cc(C(F)F)cc(C(F)F)c1)c1ncnn1-c1ccc(C#N)cn1

>  <mortality at 4 mg/m2>
80 to 100%

$$$$
>  <Smiles input>
C[C@H](NC(=O)c1cc(Br)cc(C(F)F)c1)c1ncnn1-c1ccc(C#N)cn1

>  <mortality at 4 mg/m2>
80 to 100%

$$$$
>  <Smiles input>
C[C@H](NC(=O)c1cc(Cl)cc(OC(F)(F)F)c1)c1ncnn1-c1ncc(OC(F)F)cn1

>  <mortality at 4 mg/m2>
80 to 100%

$$$$
>  <Smiles input>
Cc1nc([C@H](C)NC(=O)c2cc(Br)cc(C(F)(F)F)c2)n(-c2ccc(C#N)cn2)n1

>  <mortality at 4 mg/m2>
80 to 100%

$$$$
>  <Smiles input>
C[C@H](NC(=O)c1cc(C(F)(F)F)cc(C(F)(F)F)c1)c1ncnn1-c1ncc(Br)s1

>  <mortality at 4 mg/m2>
80 to 100%

$$$$
>  <Smiles input>
Cc1nc([C@H](C)NC(=O)c2cc(Cl)nc(C(F)(F)F)c2)n(-c2ccc(C#N)cn2)n1

>  <mortality at 4 mg/m2>
80 to 100%

$$$$
>  <Smiles input>
C[C@H](NC(=O)c1cc(C#N)cc(C(F)(F)F)c1)c1nc(C2CC2)nn1-c1ccc(C#N)cn1

>  <mortality at 4 mg/m2>
80 to 100%

$$$$
>  <Smiles input>
C[C@H](NC(=O)c1cc(Cl)cc(OC(F)(F)F)c1)c1ncnn1-c1ncc(I)s1

>  <mortality at 4 mg/m2>
80 to 100%

$$$$
>  <Smiles input>
Cc1nc([C@H](C)NC(=O)c2cc(Br)cc(C#N)c2)n(-c2ccc(C#N)cn2)n1

>  <mortality at 4 mg/m2>
80 to 100%

$$$$
